- target-under-test: human neuropeptide Y5 receptor (Homo sapiens)
- Construct: expressed in transfected cells; cell membranes
- Sequence (Q15761 1-445): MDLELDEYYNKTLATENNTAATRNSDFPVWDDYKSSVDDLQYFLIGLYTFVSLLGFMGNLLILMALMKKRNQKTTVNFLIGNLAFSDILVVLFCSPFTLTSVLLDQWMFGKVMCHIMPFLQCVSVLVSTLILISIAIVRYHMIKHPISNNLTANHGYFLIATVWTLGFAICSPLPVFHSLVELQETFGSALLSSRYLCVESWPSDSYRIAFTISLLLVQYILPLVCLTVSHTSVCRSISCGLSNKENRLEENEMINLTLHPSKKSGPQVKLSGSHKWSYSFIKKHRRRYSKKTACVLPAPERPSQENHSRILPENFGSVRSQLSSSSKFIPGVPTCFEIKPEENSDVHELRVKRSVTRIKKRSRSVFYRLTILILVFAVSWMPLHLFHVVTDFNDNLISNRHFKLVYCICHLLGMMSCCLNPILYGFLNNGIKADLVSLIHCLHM
- assay-overview: NPY5 HTS Centrifugation Assay: competition of 125I-PYY binding to membranes of NPY5-transfected HEK293 cells
- settings: 3 uM; 80 pM 125I-PYY; human NPY Y5 receptor; 1 hr room temperature; read-out: % Inhibition of 125I-PYY Binding @ 3 uM
Structures can show the parent of a compound that is named as a salt.
Parameter threshold = 40%. Response is YES when inhibition at 3 µM meets or exceeds it, else NO.

Use the examples below as a reference point.
molecule="COc1ccc2c(c1)CC[C@H](NCCc1ccc(OC)c(OC)c1)[C@@H]2Cc1ccccc1 (racemic)" target_under_test="human neuropeptide Y5 receptor (Homo sapiens)" category_label=YES
molecule="COc1ccc2c(c1)CC[C@@H](NCCc1ccc(Oc3ccccc3)cc1)[C@H]2Cc1ccccc1 (relative stereo)" target_under_test="human neuropeptide Y5 receptor (Homo sapiens)" category_label=NO
molecule="COc1ccc(CCN[C@H]2CCc3ccccc3[C@H]2Cc2cccnc2)cc1OC (relative stereo) [Compound 28, monohydrobromide]" target_under_test="human neuropeptide Y5 receptor (Homo sapiens)" category_label=NO
molecule="COc1ccccc1CC(=O)N[C@@H]1CCc2ccccc2[C@@H]1Cc1ccccc1 (relative stereo)" target_under_test="human neuropeptide Y5 receptor (Homo sapiens)" category_label=NO
molecule="COc1cccc(C[C@H]2c3ccc(OC)cc3CC[C@H]2NCCc2ccc(OC)c(OC)c2)c1 (relative stereo)" target_under_test="human neuropeptide Y5 receptor (Homo sapiens)" category_label=YES

Enquiry: Hello, I need to know if COc1ccccc1CN[C@H]1CCc2ccccc2[C@H]1Cc1ccc(F)cc1 (racemic) [Compound 12, monohydrobromide] has measured inhibition at 3 µM not below 40%. Thanks!
Return: NO

Enquiry: Does the molecule COc1ccc(CCN[C@@H]2CCc3ccccc3[C@@H]2Cc2ccccc2)cc1OC (relative stereo) have recorded inhibition at 3 µM that is 40% or more?
Return: YES

---

- target-under-test: human neuropeptide Y5 receptor (Homo sapiens, UniProt Q15761)
- Construct: expressed in transfected cells; cell membranes
- assay-overview: NPY5 HTS Centrifugation Assay: competition of 125I-PYY binding to membranes of NPY5-transfected HEK293 cells
- settings: read-out: % Inhibition of 125I-PYY Binding @ 3 uM
attribute-measured: inhibition at 3 µM (%)
Answers are plain numbers, in %.

The cases that follow already have their inhibition at 3 µM on record.
compound="COc1ccccc1CN[C@@H]1CCc2ccccc2[C@H]1Cc1ccc(F)cc1 (racemic) [Compound 13, monooxalate]" test_value=16
compound="COc1ccc2c(c1)[C@@H](Cc1ccccc1)[C@H](NCCc1c[nH]c3ccccc13)CC2 (racemic) [Compound 19, monooxalate]" test_value=49
compound="c1ccc2c(c1)CC[C@@H](NCCc1c[nH]c3ccccc13)[C@@H]2Cc1ccc2ccccc2c1 (racemic) [Compound 21, monooxalate]" test_value=33

Here is the next item to consider.
Enquiry: Requested field: inhibition at 3 µM. Item: Fc1ccc(C[C@@H]2c3ccccc3CC[C@H]2NCCc2c[nH]c3ccccc23)cc1 (racemic) [Compound 16, monooxalate]
Return: 48
